Cited source: patent US20160130351A1

Biological target: soluble human IL-6Rc (shuIL-6Rc) recombinant fusion protein of IL-6R and IL-6 (human) (UniProt P08887)
Assay: SPR (Biacore 2000), mAb captured on anti-human IgG Fc, analyte in solution, 25 C, 1:1 Langmuir

# Binder, Units symbol, kon
records = [
    ("NI-1201-C antibody (antibody, V domains shown) VH: QVQLVQSGAEVKKPGSSVKVSCKASGGTFSSYAISWVRQAPGQGLEWMGGIIPAFETTKYAQKFQGRVTITADESTSTAYMELSSLRSEDTAVYYCARDRDILTDYYPLGGMDVWGQGTTVTVSS VL: AIQLTQSPSSLSASVGDRVTITCRASQGISSVLAWYQQKPGKAPKLLIYDASSLESGVPSRFSGSGSGTDFTLTISSLQPEDFATYYCQQSNSYPLTFGGGTKVEIKR", "M⁻¹ s⁻¹", 47700),
]
